Tested on: PPARg:RXRa DBDmut IVT, anti-RXR (DBD mutation: RXRa K156A/R161A, NR concentration 270 nM, RXRa partner concentration 90 nM)
Assay: PBM binding z-score (relative to random genomic background probes); higher = stronger binding; sequences stand for … in GC…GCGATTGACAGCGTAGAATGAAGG
Reported Metric: PBM binding z-score
Numbers only.

Hi! Can you tell me PBM binding z-score for each of these sequences?
1. CGTCCAAGATCATAGGAGGTCAGTGAAGACAGAT
2. CCTACGGGGCCAAAAAGGTCATTGATGCCGATAA
3. GCGACTGGGGCATCAGCAGGTTACTATAACTTAA
4. CCTACTGGGCCCTTCAGAGGTCATTGATCATATG
5. CCTAGCAGGCCAATGTGGGTCACTCAAGGCTTGA

**A:**
[0.389, 0.493, 4.13, 0.668, 4.05]
